B1: PEX5 peptide 108-123 (Peroxisomal targeting signal 1 receptor), 16-mer library wild type / PEX14 Pex14 (PEX14 PEX14, residues 16-84) (parent)
chain 1: GVADLALSENWAQEFL
chain 2: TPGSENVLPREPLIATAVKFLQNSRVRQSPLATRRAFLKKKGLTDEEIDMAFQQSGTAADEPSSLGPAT

- Variants of: B1
- MEASUREMENT PROTOCOL: proteomic peptide phage display deep mutational scan (ProP-PD DMS): M13 P8 16-mer library selected against immobilised GST-tagged bait for four days (rounds), NGS of the eluted pools per day and pseudo-replica
- MEASUREMENT SETUP: with PEX14 Pex14 (PEX14 PEX14, residues 16-84); bait immobilised on MaxiSorp plates (10 µg), library pre-cleared on GST, 2 h binding at 4 °C, five washes; one round per day, days 1-4; value from days 2 and 3; scale: average fractional NGS count over selection days 2 and 3
OUTCOME MEASURE: screen value
Keep it simple and answer with nothing but the number.

Guide cases for screen value, answers given:
> print(dat)
     mutations  outcome.measure  value.observed
1  chain 1 A3E     screen value        7.71e-05
2  chain 1 A6Y     screen value               0

Now turn to the next variant.
Data point: chain 1 A12G ; screen value = 0.000152

The reported numbers originate from paper PMC12102759.
